Molecular target: RlmI (Escherichia coli, UniProt P75876, K201A)
Construct: pCA24N or pGEX4T-1 plasmid; His tag detected by anti-His; purified
Sequence (P75876 1-396 K201A): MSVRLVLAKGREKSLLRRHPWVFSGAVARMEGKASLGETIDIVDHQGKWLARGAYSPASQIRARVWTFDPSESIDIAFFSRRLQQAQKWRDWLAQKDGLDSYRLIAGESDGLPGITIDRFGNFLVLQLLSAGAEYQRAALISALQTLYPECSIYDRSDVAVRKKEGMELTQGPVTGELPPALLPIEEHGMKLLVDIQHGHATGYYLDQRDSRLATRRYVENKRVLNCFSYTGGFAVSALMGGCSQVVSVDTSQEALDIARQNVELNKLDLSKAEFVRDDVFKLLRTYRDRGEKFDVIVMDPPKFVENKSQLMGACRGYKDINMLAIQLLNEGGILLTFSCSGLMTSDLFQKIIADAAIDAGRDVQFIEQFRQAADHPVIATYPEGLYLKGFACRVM
Experiment: ITC
RECORDED_METRIC: Kd (µM)
Give bare numbers, in µM.

Tested on RlmI (Escherichia coli, UniProt P75876, K201A), the item "Nc1nc2c(ncn2[C@@H]2O[C@@H]3CO[P@](=O)(O)O[C@H]4[C@@H](O)[C@H](n5cnc6c(=O)[nH]c(N)nc65)O[C@@H]4CO[P@](=O)(O)O[C@H]3[C@H]2O)c(=O)[nH]1" showed Kd equal to 401
